Tested on: SF-539 CNS
test description: NCI-60 one-dose screen, 48 h
protocol conditions: 10 µM
Compounds without any hit were thinned out: in the full panel of roughly 83,000, 20% have a hit. Active and inactive are the calls of the source. Rule for the calls: active = growth percent below 10; inactive = the rest.
Your answer must be one of the following: active, inactive

# compound, discrete label
measured = [
    ("CCCCCCCOc1cccc(/C=C2/C(=O)N=C3SCCCN32)c1", "inactive"),
    ("Cc1ccc(NC(=O)/C=N/O)cc1C", "inactive"),
    ("NCCNc1ccc2cc(-c3nc4ccccc4[nH]3)c(=O)oc2c1", "inactive"),
    ("NC1CCC(Nc2nc(NCc3ccc(-c4ccccc4O)nc3)c3ncn(C4CCCC4)c3n2)CC1 (stereo unspecified)", "active"),
    ("O=C(N/N=C/c1ccccc1O)c1ccccc1", "inactive"),
]

Req: Hi, sorry to bother you, what did the test record for c1ccc(OCCC[P+](c2ccccc2)(c2ccccc2)c2ccccc2)cc1 ?
Resp: inactive

Req: Hi, sorry to bother you, what did the test record for Cc1ccc2oc(=O)cc(/C(=C3/C=CC=N3)c3ccc[nH]3)c2c1 ?
Resp: active

Req: Hi, sorry to bother you, what did the test record for CCN(CC)CCCOC(=O)Nc1ccccc1Cl ?
Resp: inactive

Req: Hi, sorry to bother you, what did the test record for CCN(CC)c1ccc(/C=C/C2=[N+](C)c3ccccc3C2(C)C)c(C)c1 ?
Resp: inactive

Req: Hi, sorry to bother you, what did the test record for CCCCCCCCCCCCCC[n+]1ccccc1 ?
Resp: active

Req: Hi, sorry to bother you, what did the test record for Cc1cc(OI)c(C(C)C)cc1-c1cc(C(C)C)c(OI)cc1C ?
Resp: inactive
